Answer each item with its documented % Inhibition.
system: Plasmodium falciparum; test: Confirmatory screen in NF54 pLDH assay, in single point, at 2uM, 72h; format: functional, Erythrocyte; settings: timepoint 72 hour
The campaign covered roughly 4,800 compounds. About 410 (8.5%) showed an effect of 50% or more. For the sample, strong results were picked, then their nearest neighbours and some compounds at random.
Express it in %; write the number only.

The reported value for CC(C)n1nccc1NC(=O)c1c[nH]c2ccc(F)cc2c1=O in terms of % Inhibition is -4

Recorded % Inhibition (compound Cc1noc(-c2csc(-c3c[nH]cn3)n2)n1 ): -1

Item: Cc1ccc(S(=O)(=O)Cc2nc3cc(C)c(C)cc3[nH]c2=O)cc1 | % Inhibition: 2

For N=C(N)NCc1ccc(COCc2ccccc2)cc1 the compound record lists % Inhibition as 17

The compound identified as Cc1cc(-c2ccccc2)c(C#N)c(=O)n1C(=O)c1ccc(C#N)cc1 registered its % Inhibition at 11

Documented % Inhibition of NC(=O)c1ccc(C(F)(F)F)n(C[C@H](O)c2cc(Cl)ccc2Cl)c1=O : 60

Lab note: measured % Inhibition of Cc1ccc(C(=O)Nc2cc3c4c(c2)C2CCCC2CN4CC2CCCC32)cc1 (stereo not drawn) was 54

For this compound ( CC[C@@H](CO)NC(=O)Nc1ccc(F)cc1 ), measured % Inhibition is 8

So, COc1cc(N2CCn3c(nc4ccccc43)C2)ccc1NC(=O)c1ccc(C)cc1 ? Its % Inhibition was -23

Lab book: % Inhibition of Cc1ccc(F)cc1S(=O)(=O)N1CC[C@]2(CCN(c3cccnc3)C2)C1 noted as -20

Reported % Inhibition for COc1ccc(-n2nc(C)c3c2NC(=O)C[C@@H]3c2ccccc2OCC(C)C)nn1 was -1

% Inhibition reported for this compound Cc1cccc(OC(=O)O[C@H]2c3nccnc3C(=O)N2c2ccc(Cl)cn2)c1 : 16

# % Inhibition (compound: O=C(Nc1ccc(N2CCn3c(nc4cc(Cl)ccc43)C2)cc1)NC1CCCCC1 ) is -13

// recorded % Inhibition for CCN1CCN(c2cccc(NC(=O)c3ccc4[nH]c5ccccc5c(=O)c4c3)c2)CC1 : 100

Kindly note the recorded % Inhibition for Cc1n[nH]c(C)c1NC(=O)CN1CC(C)OC(C)C1 (stereo not drawn) , which is -7

For this compound ( Cc1cc(C(=O)NCCCS(N)(=O)=O)c(Cl)cc1F ), measured % Inhibition is -7

Input COc1ccc(CNC(=N)NS(=O)(=O)c2ccc(OC)c(OC)c2)c(OC)c1 . Output % Inhibition: 11

Record summary for Cc1c(C(=O)N2CC[C@H](CC(C)(C)C)C2(C)C)nnn1-c1cnn(C)c1 : reported % Inhibition = -9

% Inhibition measured on CC(C)(C)OC(=O)Cn1cc(CO)nn1 = 10

Documented % Inhibition of CC1CC(NC(=O)NC2CS(=O)(=O)c3ccccc32)C(=O)N1c1ccccc1 (stereo not drawn) : -1

The compound CC(=O)N1CCn2c(nnc2[C@@H]2CCCN2S(=O)(=O)c2cc(F)ccc2F)C1 showed % Inhibition equal to 3

So, Cn1ccc(NC(=O)c2cccc3ccccc23)n1 ? Its % Inhibition was 4

Measured % Inhibition, O=C(Nc1ccccc1-c1nnc[nH]1)c1ccc(F)c(Cl)c1 : 2

Item: O=C(Nc1[nH]c(=O)ncc1F)c1cccc2ccccc12 | % Inhibition: 72

Data point: Cc1ccccc1[C@H]1CCN(c2ccc(NC(=O)c3ccc(Cl)cc3)c(C(=O)O)c2)C1 ; % Inhibition = -17

For reference, reported % Inhibition for N#Cc1c(-c2ccccc2)cc(-c2ccccc2)n(C(=O)c2ccc(F)cc2)c1=O stands at 9

Looking up O=C(CNC(=O)COc1ccccc1)NCC1(O)CCCCCC1 , I see its % Inhibition listed as 6

Form field % Inhibition, entry CCOc1cc(Cl)c(Cl)c(C#N)c1OC(C)=O : 6

Input Cc1ccn2c(CN3CCN([C@H]4CCN(Cc5ccccc5)C4)CC3)c(C)nc2c1 . Output % Inhibition: 9

Memo: Cc1c(Br)c(C)n(NC(=O)c2cnn(Cc3ccccc3)c2)c(=O)c1C#N , reported % Inhibition: -15

Reported % Inhibition of Cc1ccnc(-c2noc(Cn3c(=O)c(C)cn(C)c3=O)n2)c1 : 4

compound CCN1CCN(C(=O)c2ccccc2N2CCC(NC(=O)c3cccc(Br)c3)CC2)CC1 , % Inhibition observed: 40

For this compound ( O=C([C@@H]1CCCN1c1ncc(C(F)(F)F)cc1Cl)N1Cc2ccccc2C1 ), measured % Inhibition is -18

Recorded % Inhibition (compound Cc1cccc(C)c1NC(=O)c1cc(-c2cccc3ccccc23)[nH]n1 ): 11

Notebook: CCc1nn2c(c1-c1ccc(C)cc1)NC(=O)C[C@H]2C(=O)O , % Inhibition read as 12

// field: % Inhibition; key: Cc1cccc(NC(=O)c2cc(C)nc3c2c(C)nn3-c2ccc(F)cc2)c1 ; value = 0

Reported % Inhibition ( c1coc([C@H](CNC2CCCC2)N2CCCC2)c1 ) = -12

Lab note: measured % Inhibition of C[C@H]1CCC[C@@H](NCCc2ccccc2)CCC/C=C/c2cc(O)cc(O)c2C(=O)O1 was 72

Memo: CN(C)c1cccc(C(=O)N2CCN(c3ncc(F)cn3)C(=O)C2)c1 , reported % Inhibition: 10

Entry under test: NC(=O)c1ccc(C(F)(F)F)n(CC(=O)N(Cc2ccc(F)cc2)C2CCCCC2)c1=O . Its % Inhibition was -6

Form field % Inhibition, entry Cc1c[nH]c(=O)n1-c1ccc(C(=O)NCCc2cc(F)cc(F)c2)cc1 : 10

Summary for this compound, CCN(CC)c1ccc(NS(=O)(=O)c2cc(S(=O)(=O)c3ccc(Cl)c(S(=O)(=O)Nc4ccc(N(CC)CC)cc4)c3)ccc2Cl)cc1 : % Inhibition is 5

Query O=C(C[C@H]1CCN(C(=O)Nc2ccc3c(c2)OCCO3)C1)NCc1ccncc1 yields % Inhibition of 7
